Data provenance: the supplement of paper PMC9446081

System: Escherichia coli K-12 BW25113
Test: relative growth (OD600 normalised to plate interquartile mean) (fraction); higher = less growth inhibition, active = 0.2 or less
Settings: 50 µM; LB; incubation time: overnight (16-24 h)
About 220 (0.56%) of roughly 39,000 compounds showed activity. What follows is part of a selection rich in actives, with near analogues and random picks from the rest.
Answer with one of the outcomes t = active, f = inactive

CCCCCCCCCCCCCCCCOP(=O)([O-])OCC[N+](C)(C)C	f
CO/N=C1\CN(c2nc3c(cc2F)c(=O)c(C(=O)O)cn3C2CC2)C[C@@H]1CN	t

Ask: Assay outcome for CC(Cc1cccc(C(F)(F)F)c1)NCCOC(=O)c1ccccc1.Cl (stereo unspecified) : what was it?
Result: f

Ask: And COCC#Cc1ccc2c(c1)O[C@H](CN(C)C(=O)C1CCCCC1)[C@H](C)CN([C@H](C)CO)S2(=O)=O ?
Result: f

Ask: Follow-up entry: O=C1C[C@]2(c3ccc([N+](=O)[O-])cc3)C(=O)N(C3CC3)c3cc(CO)ccc3[C@H]2N1CC12CC3CC(CC(C3)C1)C2
Result: f

Ask: What do you have for C[C@@H]1CN([C@@H](C)CO)C(=O)c2cc(NS(=O)(=O)c3cn(C)cn3)ccc2O[C@H]1CN(C)S(C)(=O)=O ?
Result: f

Ask: Now the molecule C[C@@H](O)c1cccc(C(F)(F)F)c1
Result: f

Ask: Entry to check: CC(C)(C)OC(=O)N1CCC(N)CC1
Result: f

Ask: Please do the same for COc1ccc(CN(C)C[C@H]2OCCCC[C@H](C)Oc3ccc(NS(=O)(=O)c4ccc(C)cc4)cc3C(=O)N([C@@H](C)CO)C[C@@H]2C)cc1 as well.
Result: f

Ask: Try this molecule too: CO[C@@H]1[C@@H](OC(=O)c2ccc(C)[nH]2)[C@@H](O)[C@@H](Oc2ccc3c(c2C)OC(=O)[C@H](NC(=O)c2[nH]cc(CC(=O)Nc4cc5ccc(O[C@@H]6OC(C)(C)[C@H](OC)[C@@H](OC(=O)c7ccc(C)[nH]7)[C@H]6O)c(C)c5oc4=O)c2C)C3)CC1(C)C
Result: t

Ask: Query C[C@@H]1CN([C@H](C)CO)C(=O)c2cc(NC(=O)C3CC3)ccc2O[C@@H]1CN(C)S(=O)(=O)c1ccccc1 next
Result: f

###

System: Escherichia coli K-12 BW25113;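 note: Wild-type cells incubated without shaking, value is the mean of two biological replicates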
Assay: relative growth (OD600 normalised to plate interquartile mean) (fraction); higher = less growth inhibition, active = 0.2 or less
Details: 50 µM; LB; incubation time: overnight (16-24 h)
Hit rate of the full screen: of about 39,000 compounds, about 220 (0.56%) showed activity. The entries come from a sample that favours actives as a whole.
quantityKind: relative growth
I'd appreciate a reply containing only the number, no unit.

CS(=O)(=O)N(CCC#N)Cc1ccco1	1
C[C@@H]1CN([C@H](C)CO)C(=O)c2cc(NS(=O)(=O)c3cccs3)ccc2O[C@H]1CN(C)Cc1ccc(Cl)c(Cl)c1	0.994
O=C(C[C@H]1C[C@@H]2c3cc(NC(=O)C4CCOCC4)ccc3O[C@@H]2[C@@H](CO)O1)NCc1cc(F)ccc1F	0.984
CC(C)CC#Cc1ccc2c(c1)O[C@H](CN(C)C(=O)NC1CCCC1)[C@H](C)CN([C@@H](C)CO)S2(=O)=O	0.997
COC(=O)c1cn(CC(=O)N2CCN(C)CC2)nn1	0.978
C[C@H]1CCCCO[C@@H](CN(C)C(=O)NC2CCCCC2)[C@@H](C)CN([C@@H](C)CO)C(=O)c2cc(NC(=O)c3ccccc3)ccc2O1	1.03
O=C(C[C@@H]1CC[C@H]2[C@@H](COC[C@H](O)CN2C(=O)c2ccccc2F)O1)N1CCN(c2ccccc2)CC1	0.976

Please examine the following record next.
Ask: // query relative growth value for entry CC(C)NC(=O)N[C@@H]1CC[C@@H](CCN)O[C@H]1CO
Result: 0.989
